These data points were gathered from paper PMC4336584.

- METHOD: Cytostatic assay
- Format: cell-based
- TEST_CONDITIONS: human, Huh 5-2 cells
READOUT_NAME: CC50 at 3 days (µM)
Answers are plain numbers, in µM.

CC50 at 3 days for C/C=C/C[C@@H](C)[C@@H](O)[C@H]1C(=O)N[C@@H](CC)C(=O)N(C)[C@H](C)C(=O)N(CC)[C@@H](C(C)C)C(=O)N[C@@H](C(C)C)C(=O)N(C)[C@@H](CC(C)C)C(=O)N[C@@H](C)C(=O)N[C@H](C)C(=O)N(C)[C@@H](CC(C)C)C(=O)N(C)[C@@H](CC(C)C)C(=O)N(C)[C@@H](C(C)C)C(=O)N1C is 11.2

----------
- METHOD: Solubility analysis in PBS pH 7.4
- Type: physicochemical
- TEST_CONDITIONS: pH 7.4, aqueous buffer, kinetic from dmso stock
READOUT_NAME: solubility at 4 h (µM)
Answers are plain numbers, in µM.

solubility at 4 h for C/C=C/C[C@@H](C)[C@@H](O)[C@H]1C(=O)N[C@@H](CC)C(=O)N(C)[C@H](C)C(=O)N(CC)[C@@H](C(C)C)C(=O)N[C@@H](C(C)C)C(=O)N(C)[C@@H](CC(C)C)C(=O)N[C@@H](C)C(=O)N[C@H](C)C(=O)N(C)[C@@H](CC(C)C)C(=O)N(C)[C@@H](CC(C)C)C(=O)N(C)[C@@H](C(C)C)C(=O)N1C is 15

----------
- METHOD: Plasma protein binding analysis
- Assay type: in vitro ADME
- TEST_CONDITIONS: human
READOUT_NAME: fraction unbound at 5 h, 1 µM

fraction unbound at 5 h, 1 µM for C/C=C/C[C@@H](C)[C@@H](O)[C@H]1C(=O)N[C@@H](CC)C(=O)N(C)[C@H](C)C(=O)N(CC)[C@@H](C(C)C)C(=O)N[C@@H](C(C)C)C(=O)N(C)[C@@H](CC(C)C)C(=O)N[C@@H](C)C(=O)N[C@H](C)C(=O)N(C)[C@@H](CC(C)C)C(=O)N(C)[C@@H](CC(C)C)C(=O)N(C)[C@@H](C(C)C)C(=O)N1C is < 0.04
